ASSAY_NOTES: self-splicing fitness, log relative to wild type (ln ratio); higher = more splicing; Tetrahymena group I intron in knt gene, E. coli kanamycin selection, DiMSum; sequences stand for … in CUCUCU…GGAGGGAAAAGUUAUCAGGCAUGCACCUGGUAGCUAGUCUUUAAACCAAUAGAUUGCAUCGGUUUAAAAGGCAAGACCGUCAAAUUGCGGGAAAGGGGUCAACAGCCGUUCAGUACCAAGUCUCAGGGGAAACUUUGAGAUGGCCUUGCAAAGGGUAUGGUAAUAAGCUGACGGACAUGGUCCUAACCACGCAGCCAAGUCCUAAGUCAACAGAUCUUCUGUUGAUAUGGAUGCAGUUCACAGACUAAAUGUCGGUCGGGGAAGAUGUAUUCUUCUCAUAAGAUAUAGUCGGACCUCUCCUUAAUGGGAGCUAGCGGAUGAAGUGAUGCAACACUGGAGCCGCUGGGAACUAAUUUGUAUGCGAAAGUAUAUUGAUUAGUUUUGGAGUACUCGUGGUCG;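 further: selection with 25 µg/mL kanamycin versus none on LB agar overnight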
ASSAY_SETUP: 37 °C
Give self-splicing fitness (ln) for every item shown.
Answers are plain numbers.

>  <BIOSEQUENCE>
GAUUAGCAAUAUUACGCUAA

>  <RECORDED_MEASUREMENT>
-1.89

$$$$

Here are 3 sequences. What values of self-splicing fitness (ln) were reported for them?
1. GCUCAGCAAUAUUACGGCAA
2. AACUAGCAAUAUUACGAAAC
3. UGGAAGCAAUAUUACGGGCC

-1.1
-2.94
-1.27

// each sequence listed below needs its self-splicing fitness (ln)
1. CGAAAGCAAUAUUACGUGUU
2. AACUAGCAAUAUUACGUGGC
3. CGGGAGCAAUAUUACGAUGU
4. AUCAAGCAAUAUUACGAAUG

-2.54
-1.92
-2.53
-0.57

Kindly give each listed record's self-splicing fitness (ln).
1. CCCAAGCAAUAUUACGUUAA
2. ACAUAGCAAUAUUACGAAGU
3. UUCCAGCAAUAUUACGGCAC
4. CAUCAGCAAUAUUACGCGUA
5. UGCUAGCAAUAUUACGAGAU
6. ACCCAGCAAUAUUACGUGGA

-2.62
-2.85
-0.351
-0.774
-2.41
0.15

// each sequence listed below needs its self-splicing fitness (ln)
1. CGCAAGCAAUAUUACGCCGG
2. ACGUAGCAAUAUUACGGCUA
3. UCAAAGCAAUAUUACGCCAC

1: -0.476; 2: -2.26; 3: -2.07

Where do these numbers come from? They come from the supplement of paper PMC7877785.
